Tested on: 388556-164-R-J1-PDC complex spheroid viability
PROTOCOL TEXT: Anticancer human tumor 388556-164-R-J1-PDC patient-derived colon adenocarcinoma cell line growth inhibition [RAS]
RECORDED CONDITIONS: second compound 0.00949 µM; first compound 1 µM; active compounds read low
ENDPOINT: viability, T/C (%)
Give your result in % as a bare value.

Entry CC(C)NCC(C(=O)N1CCN(c2ncnc3c2C(C)CC3O)CC1)c1ccc(Cl)cc1 (centres undefined) + CCn1c(-c2cccnc2C(C)OC)c2c3cc(ccc31)N1CCOC(CC(NC(=O)C(C(C)C)N(C)C(=O)C3(F)CCN(C(=O)C#CC(C)(C)N(C)C)CC3)C(=O)N3CCCC(N3)C(=O)OCC(C)(C)C2)C1 has what viability, T/C?
90.7

Entry Nc1ccn(C2OC(CO)C(O)C2(F)F)c(=O)n1 (centres undefined) + CCn1c(-c2cc(N3CCN(C)CC3)cnc2C(C)OC)c2c3cc(ccc31)-c1csc(n1)CC(NC(=O)C1CC1C)C(=O)N1CCCC(N1)C(=O)OCC(C)(C)C2 has what viability, T/C?
52.7

Entry Nc1ccn(C2OC(CO)C(O)C2(F)F)c(=O)n1 (centres undefined) + CCn1c(-c2cccnc2C(C)OC)c2c3cc(ccc31)N1CCOC(CC(NC(=O)C(C(C)C)N(C)C(=O)C3(F)CCN(C(=O)C#CC(C)(C)N(C)C)CC3)C(=O)N3CCCC(N3)C(=O)OCC(C)(C)C2)C1 has what viability, T/C?
64.5

Entry C[C@@H](NC(=O)c1ncnc(N)c1Cl)c1ncc(C(=O)Nc2cc(C(F)(F)F)c(Cl)cn2)s1 + CCn1c(-c2cccnc2C(C)OC)c2c3cc(ccc31)N1CCOC(CC(NC(=O)C(C(C)C)N(C)C(=O)C3(F)CCN(C(=O)C#CC(C)(C)N(C)C)CC3)C(=O)N3CCCC(N3)C(=O)OCC(C)(C)C2)C1 has what viability, T/C?
108

====

Test system: 388556-164-R-J1-PDC complex spheroid viability
PROTOCOL TEXT: Anticancer human tumor 388556-164-R-J1-PDC cell line growth inhibition [RAS];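 also: spheroids exposed to compound for 7 days before readout; 100% = DMSO vehicle control luminescence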
RECORDED CONDITIONS: second compound 0.000949 µM; first compound 0.316 µM; active compounds read low
ENDPOINT: viability, T/C (%)
Give your result in % as a bare value.

Entry CC(=O)OC12COC1CC(O)C1(C)C(=O)C(O)C3=C(C)C(OC(=O)C(O)C(NC(=O)OC(C)(C)C)c4ccccc4)CC(O)(C(OC(=O)c4ccccc4)C21)C3(C)C (configuration not stated) + CCn1c(-c2cccnc2C(C)OC)c2c3cc(ccc31)N1CCOC(CC(NC(=O)C(C(C)C)N(C)C(=O)C3(F)CCN(C(=O)C#CC(C)(C)N(C)C)CC3)C(=O)N3CCCC(N3)C(=O)OCC(C)(C)C2)C1 has what viability, T/C?
70.5

Entry Nc1ccn(C2OC(CO)C(O)C2(F)F)c(=O)n1 (configuration not stated) + CCn1c(-c2cccnc2C(C)OC)c2c3cc(ccc31)N1CCOC(CC(NC(=O)C(C(C)C)N(C)C(=O)C3(F)CCN(C(=O)C#CC(C)(C)N(C)C)CC3)C(=O)N3CCCC(N3)C(=O)OCC(C)(C)C2)C1 has what viability, T/C?
71.6

====

Kindly supply the reported viability, T/C values for the records listed here.
Tested on: 388556-164-R-J1-PDC complex spheroid viability
PROTOCOL TEXT: Anticancer human tumor 388556-164-R-J1-PDC cell line growth inhibition [RAS];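 also: spheroids exposed to compound for 7 days before readout; 100% = DMSO vehicle control luminescence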
RECORDED CONDITIONS: second compound 0.003 µM; first compound 0.1 µM; active compounds read low
Source text: RAS pathway inhibitors in Combinations in Complex Spheroids A high-throughput screen of multi-cell type tumor spheroids was designed to identify active combinations of RAS pathway inhibitors and targeted small molecules. Complex spheroids include a stromal component modeled by human endothelial cells (HUVEC) and fibroblasts modeled by human mesenchymal stem cells (MSCs). […] Compounds. […] If the clinical Cmax for an agent had not been determined, the highest concentration tested was 10 microM. […]
Give your result in % as a bare value.

Entry C=CC(=O)Nc1cc(Nc2nccc(-c3cn(C)c4ccccc34)n2)c(OC)cc1N(C)CCN(C)C + CCn1c(-c2cc(N3CCN(C)CC3)cnc2C(C)OC)c2c3cc(ccc31)-c1csc(n1)CC(NC(=O)C1CC1C)C(=O)N1CCCC(N1)C(=O)OCC(C)(C)C2 has what viability, T/C?
74

Entry CC(=O)OC12COC1CC(O)C1(C)C(=O)C(O)C3=C(C)C(OC(=O)C(O)C(NC(=O)OC(C)(C)C)c4ccccc4)CC(O)(C(OC(=O)c4ccccc4)C21)C3(C)C (centres undefined) + CCn1c(-c2cc(N3CCN(C)CC3)cnc2C(C)OC)c2c3cc(ccc31)-c1csc(n1)CC(NC(=O)C1CC1C)C(=O)N1CCCC(N1)C(=O)OCC(C)(C)C2 has what viability, T/C?
61.6

Entry O=C(c1ccc(F)c(F)c1Nc1ccc(I)cc1F)N1CC(O)([C@@H]2CCCCN2)C1 + CCn1c(-c2cc(N3CCN(C)CC3)cnc2C(C)OC)c2c3cc(ccc31)-c1csc(n1)CC(NC(=O)C1CC1C)C(=O)N1CCCC(N1)C(=O)OCC(C)(C)C2 has what viability, T/C?
46

Entry C[C@@H](NC(=O)c1ncnc(N)c1Cl)c1ncc(C(=O)Nc2cc(C(F)(F)F)c(Cl)cn2)s1 + CCn1c(-c2cccnc2C(C)OC)c2c3cc(ccc31)N1CCOC(CC(NC(=O)C(C(C)C)N(C)C(=O)C3(F)CCN(C(=O)C#CC(C)(C)N(C)C)CC3)C(=O)N3CCCC(N3)C(=O)OCC(C)(C)C2)C1 has what viability, T/C?
102
